Test method notes: In vivo biodistribution in mice
Set-up: species or system normal CD-1 male mice
Condition description: iv, 120 min post injection
Assay metric: Biodistribution: Kidney (% dose/g)

- O=C([O-])CN(CCN(CC(=O)[O-])Cc1cc(CCC(=O)N[C@@H](CC(=O)O)C(=O)O)ccc1[O-])Cc1cc(CCC(=O)NC(P(=O)(O)O)P(=O)(O)O)ccc1[O-].[68Ga+3] [[^68Ga]1e]: 1.41
- O=C([O-])CN(CCN(CC(=O)[O-])Cc1cc(CCC(=O)NC(P(=O)(O)O)P(=O)(O)O)ccc1[O-])Cc1cc(CCC(=O)NC2C(O)OC(CO)C(O)C2O)ccc1[O-].[68Ga+3] (stereo not shown) [[^68Ga]1b]: 2.71
- O=C(O)CN1CCN(CC(=O)O)CCN(CC(=O)NC(P(=O)(O)O)P(=O)(O)O)CCN(CC(=O)O)CC1.[68Ga] [[^68Ga]BPAMD, reference compound]: 1.09
- O=C([O-])CN(CCN(CC(=O)[O-])Cc1cc(CCC(=O)NC(P(=O)(O)O)P(=O)(O)O)ccc1[O-])Cc1cc(CCC(=O)NCC(=O)O)ccc1[O-].[68Ga+3] [[^68Ga]1c]: 2.05
- O=C([O-])CN(CCN(CC(=O)[O-])Cc1cc(CCC(=O)NC(P(=O)(O)O)P(=O)(O)O)ccc1[O-])Cc1cc(CCC(=O)NC(P(=O)(O)O)P(=O)(O)O)ccc1[O-].[68Ga+3] [[^68Ga]2]: 2.86
- O=C([O-])CN(CCN(CC(=O)[O-])Cc1cc(CCC(=O)NC(P(=O)(O)O)P(=O)(O)O)ccc1[O-])Cc1cc(CCC(=O)NCCNC(=O)CN2CCN(CC(=O)O)CCN(CC(=O)O)CCN(CC(=O)O)CC2)ccc1[O-].[68Ga+3] [[^68Ga]1h]: 1.67
- O=C([O-])CN(CCN(CC(=O)[O-])Cc1cc(CCC(=O)N[C@@H](CCC(=O)O)C(=O)O)ccc1[O-])Cc1cc(CCC(=O)NC(P(=O)(O)O)P(=O)(O)O)ccc1[O-].[68Ga+3] [[^68Ga]1f]: 1.08
- O=C([O-])CN(CCN(CC(=O)[O-])Cc1cc(CCC(=O)NC(P(=O)(O)O)P(=O)(O)O)ccc1[O-])Cc1cc(CCC(=O)O)ccc1[O-].[68Ga+3] [[^68Ga]1a]: 0.92
- O=C([O-])CN(CCN(CC(=O)[O-])Cc1cc(CCC(=O)NC(P(=O)(O)O)P(=O)(O)O)ccc1[O-])Cc1cc(CCC(=O)NCCCNC(=O)CCc2ccc(O)c(CN(CCN(CC(=O)O)Cc3cc(CCC(=O)NC(P(=O)(O)O)P(=O)(O)O)ccc3O)CC(=O)O)c2)ccc1[O-].[68Ga+3] [[^68Ga]3]: 8.99
- O=C([O-])CN(CCN(CC(=O)[O-])Cc1cc(CCC(=O)O)ccc1[O-])Cc1cc(CCC(=O)O)ccc1[O-].[68Ga+3] [[^68Ga]HBED-CC, reference compound]: 0.08
